Origin of values: a melting point compilation (Tetko et al.)

For each of the molecules below, state its melting point.
One number for each entry, in °C.

ICC(CI)(CI)CI = 225
CCOCCOC(=O)CCCCCCCCC(=O)OCCOCC = -1
Nc1cccc2c1Cc1ccccc1-2 = 126

Below: the item to evaluate.
May I ask what melting point has been recorded for "COc1ccc(C=Cc2cc(OC)cc(=O)o2)cc1" ?
156

###

For each of the compounds below, state its melting point.
One number for each entry, in °C.

COc1ccc(O)cc1C(C)(C)C = 48

Kindly give each listed record's melting point.
1. CCOC(=O)c1cn2nc(OP(=S)(OCC)OCC)cc2nc1C
2. O=S(=O)(Cl)c1ccccc1OC(F)(F)F
3. CC1OC(C)OC(C)OC(C)O1 (stereo unspecified)
4. Cc1cnc(NS(=O)(=O)c2ccc(N)cc2)nc1
5. NCCCCCCCCCCC(=O)O

[51, 31, 246, 262, 191]

Kindly give each listed record's melting point.
1. O=[N+]([O-])c1cccc(F)c1O
2. CCCCCCCCCCCCCCCCCC(=O)Oc1ccccc1
3. Nc1cc(F)ccc1-n1ccnc1
4. CCCCCCCOc1ccc(N)cc1
5. Nc1ccc(OCCCCCN2C(=O)c3ccccc3C2=O)cc1
6. Cc1c(C(=O)O)sc2sc(C(=O)O)c(C)c12

1. 92.5
2. 52
3. 127
4. 45
5. 113
6. 360
